Experiment: T1 and T2 relaxivity measurements at 9.4 T (400 MHz NMR)
Assay type: physicochemical
Settings: PBS buffer pH 7.4, 37 °C, with Gln

>  <molecule>
[Dy(DOTA-malC)]72-A126Y: swArM: Dy(DOTA-mal^C), linker on carbon of carboxylate arm, on T72C/A126Y GlnBP (conjugate, UniProt P0AEQ3 23-248, looked up, variant T72C A126Y, Dy(DOTA-malC) at Cys72, swArM: Dy(DOTA-mal^C), linker on carbon of carboxylate arm, on T72C/A126Y GlnBP) Glutamine-binding periplasmic …: ADKKLVVATDTAFVPFEFKQGDKYVGFDVDLWAAIAKELKLDYELKPMDFSGIIPALQTKNVDLALAGITICDERKKAIDFSDGYYKSGLLVMVKANNNDVKSVKDLDGKVVAVKSGTGSVDYAKYNIKTKDLRQFPNIDNAYMELGTNRADAVLHDTPNILYFIKTAGNGQFKAVGDSLEAQQYGIAFPKGSDELRDKVNGALKTLRENGTYNEIYKKWFGTEPK

>  <r2 (Holo)>
9.6 ± 0.2 mM⁻¹ s⁻¹

$$$$
